System: HEK-293T
Assay: Multiplex assay against HEK293T
Format: toxicity, cell-based
Settings: human, 48 h, 1 µM, compound concentration 1 uM, replicate 2
METRIC NAME: Population Hoechst High Intensity Objects (%)
Express it in %; write the number only.

Before answering, review these 8 worked examples.
{"COMPOUND": "CCCCCCNC(=O)Nc1ccc(S(=O)(=O)Nc2ccc(CCNC[C@H](O)COc3ccc(O)cc3)cc2)cc1 [L-755507]", "ASSAYED TARGET": "HEK-293T", "RECORDED VALUE": 5}
{"COMPOUND": "CCc1nn2c(C)cc(C)nc2c1Cc1ccc(-c2nnc(C3CCNCC3)o2)cc1", "ASSAYED TARGET": "HEK-293T", "RECORDED VALUE": 5}
{"COMPOUND": "CC(C)(O)C(=O)N1CCN(c2ccc(C(F)(F)F)c(C3=C(c4c[nH]c5ccccc45)C(=O)NC3=O)c2)CC1", "ASSAYED TARGET": "HEK-293T", "RECORDED VALUE": 5}
{"COMPOUND": "COc1ccc2[nH]c(I)c(CCNC(C)=O)c2c1 [IODOMELATONIN]", "ASSAYED TARGET": "HEK-293T", "RECORDED VALUE": 5}
{"COMPOUND": "CCCCC[C@H](O)/C=C/[C@H]1[C@H](O)CC(=O)[C@@H]1CCCCCCC(=O)O [ALPROSTADIL]", "ASSAYED TARGET": "HEK-293T", "RECORDED VALUE": 3}
{"COMPOUND": "CC(C)C[C@H](CO)Nc1nc(S[C@@H](C)c2ccccc2)nc2nc(N)sc12 [AZD-8797]", "ASSAYED TARGET": "HEK-293T", "RECORDED VALUE": 3}
{"COMPOUND": "Cl.Cl.OCCOCCN1CCN(C(c2ccccc2)c2ccc(Cl)cc2)CC1 (configuration not stated) [HYDROXYZINE HYDROCHLORIDE]", "ASSAYED TARGET": "HEK-293T", "RECORDED VALUE": 3}
{"COMPOUND": "O=c1ccc2ccc(OCCCCN3CCN(c4cccc5sccc45)CC3)cc2[nH]1 [BREXPIPRAZOLE]", "ASSAYED TARGET": "HEK-293T", "RECORDED VALUE": 3}

Ask | What Population Hoechst High Intensity Objects (%) appears in the records for this compound with HEK-293T? Cc1cc(-c2ccc3c(c2)CC[C@H]3N2CC3(CCN(C(=O)Cc4cn5cc(C)sc5n4)CC3)C2)ncn1 [PF-5190457]
Reply | 3

Ask | What Population Hoechst High Intensity Objects (%) appears in the records for this compound with HEK-293T? O=C(O)CCC/C=C\CC1C(O)CC(O)C1/C=C/C(O)COc1cccc(Cl)c1 (configuration not stated) [CLOPROSTENOL]
Reply | 5

Ask | What Population Hoechst High Intensity Objects (%) appears in the records for this compound with HEK-293T? C=CCN1C[C@H](C(=O)N(CCCN(C)C)C(=O)NCC)C[C@@H]2c3cccc4[nH]cc(c34)C[C@H]21 [CABERGOLINE]
Reply | 3

Ask | What Population Hoechst High Intensity Objects (%) appears in the records for this compound with HEK-293T? COC(c1ccccc1)(c1ccccc1)[C@H](Oc1nc(C)cc(C)n1)C(=O)O [AMBRISENTAN]
Reply | 3

----------
Test system: U2OS
Experiment: Multiplex assay against U2OS
Format: toxicity, cell-based
Conditions: human, 12 h, 1 µM, compound concentration 1 uM, replicate 2
Non-standard residues stand in square brackets, D forms with d. Residues, ends and D or L forms follow the SMILES beside them.
METRIC NAME: Population Normal (%)
Output should be the measured figure followed by the unit it is expressed in.

Before answering, review these 2 worked examples.
{"COMPOUND": "CSc1nc(NC2CCCC2)c([N+](=O)[O-])c(NC2CCCC2)n1", "ASSAYED TARGET": "U2OS", "Population Normal (%)": "96%"}
{"COMPOUND": "CCCCC[C@H](O)/C=C/[C@H]1[C@H](O)CC(=O)[C@@H]1CCCCCCC(=O)O", "ASSAYED TARGET": "U2OS", "Population Normal (%)": "100%"}

Ask | Form field: reported Population Normal (%) of CC(C)C[C@@H]1NC(=O)[C@@H](C(C)C)NC(=O)[C@@H]2CCCN2C(=O)[C@@H](CC(=O)O)NC(=O)[C@@H](Cc2c[nH]c3ccccc23)NC1=O [BQ-123] (cyclo(L[dW][dD]P[dV]))
Reply | 97%

----------
Below is a list of entries, each paired with its recorded Population Apoptotic (%) value.
Test system: Fibroblast
Assay: Multiplex assay against human fibroblast
Type: toxicity, cell-based
Conditions: 24 h, 1 µM, compound concentration 1 uM, replicate 1
Non-standard residues stand in square brackets, D forms with d. Residues, ends and D or L forms follow the SMILES beside them.
Output should be the measured figure followed by the unit it is expressed in.

Before answering, review these 6 worked examples.
{"COMPOUND": "Cl.Cl.OCCOCCN1CCN(C(c2ccccc2)c2ccc(Cl)cc2)CC1 (centres undefined) [HYDROXYZINE HYDROCHLORIDE]", "RECORDED VALUE": "30%"}
{"COMPOUND": "N[C@](CC1c2ccccc2Oc2ccccc21)(C(=O)O)[C@H]1C[C@@H]1C(=O)O", "RECORDED VALUE": "68%"}
{"COMPOUND": "CC(C)C[C@@H]1NC(=O)[C@@H](C(C)C)NC(=O)[C@@H]2CCCN2C(=O)[C@@H](CC(=O)O)NC(=O)[C@@H](Cc2c[nH]c3ccccc23)NC1=O [BQ-123] (cyclo(L[dW][dD]P[dV]))", "RECORDED VALUE": "53%"}
{"COMPOUND": "CC(C)(C)c1ccc(CSc2cnn(C(C)(C)C)c(=O)c2Cl)cc1 [PYRIDABEN]", "RECORDED VALUE": "35%"}
{"COMPOUND": "CC(F)(F)CN1CCOc2c(nn(-c3ccccc3Cl)c2-c2ccc(Cl)cc2)C1=O", "RECORDED VALUE": "61%"}
{"COMPOUND": "Cc1cc(NC(=O)NCCN2CCC(O)(Cc3ccccc3)CC2)c2ccccc2n1 [PALOSURAN]", "RECORDED VALUE": "53%"}

Ask | Form field: reported Population Apoptotic (%) of Nc1nc(CC(=O)Nc2ccc(CCNC[C@H](O)c3ccccc3)cc2)cs1 [MIRABEGRON]
Reply | 59%

Ask | Form field: reported Population Apoptotic (%) of "Nc1nc(-c2ccco2)c2cnn(Cc3ccccc3F)c2n1"
Reply | 50%

----------
Below is a list of entries, each paired with its recorded Population Hoechst High Intensity Objects (%) value.
System: Fibroblast
Experiment: Multiplex assay against human fibroblast
Assay type: toxicity, cell-based
Details: 12 h, 1 µM, compound concentration 1 uM, replicate 1
Non-standard residues stand in square brackets, D forms with d. Residues, ends and D or L forms follow the SMILES beside them.
Express it in %; write the number only.

Before answering, review these 5 worked examples.
{"COMPOUND": "COc1cc(Nc2ncc3c(n2)-c2ccc(Cl)cc2C(c2c(F)cccc2OC)=NC3)ccc1C(=O)O [ALISERTIB]", "RECORDED VALUE": 1}
{"COMPOUND": "CCc1nn2c(C)cc(C)nc2c1Cc1ccc(-c2nnc(C3CCNCC3)o2)cc1", "RECORDED VALUE": 2}
{"COMPOUND": "COc1cc(OC2CCN(C(C)=O)CC2)ccc1C(=O)N1CCC(N2C(=O)OCc3ccccc32)CC1", "RECORDED VALUE": 5}
{"COMPOUND": "N[C@](CC1c2ccccc2Oc2ccccc21)(C(=O)O)[C@H]1C[C@@H]1C(=O)O", "RECORDED VALUE": 4}
{"COMPOUND": "CCC(=O)OCC(=O)[C@@]1(OC(=O)CC)[C@@H](C)C[C@H]2[C@@H]3CCC4=CC(=O)C=C[C@]4(C)[C@@]3(Cl)[C@@H](O)C[C@@]21C [BECLOMETHASONE DIPROPIONATE]", "RECORDED VALUE": 3}

Ask | Form field: reported Population Hoechst High Intensity Objects (%) of CC(C)C[C@@H]1NC(=O)[C@@H](C(C)C)NC(=O)[C@@H]2CCCN2C(=O)[C@@H](CC(=O)O)NC(=O)[C@@H](Cc2c[nH]c3ccccc23)NC1=O [BQ-123] (cyclo(L[dW][dD]P[dV]))
Reply | 0

Ask | Form field: reported Population Hoechst High Intensity Objects (%) of O=C(NCCNCC(O)COc1ccc(O)cc1)N1CCOCC1.O=C(NCCNCC(O)COc1ccc(O)cc1)N1CCOCC1.O=C(O)/C=C/C(=O)O (stereo not drawn) [XAMOTEROL FUMARATE]
Reply | 2

Ask | Form field: reported Population Hoechst High Intensity Objects (%) of Nc1nc(CC(=O)Nc2ccc(CCNC[C@H](O)c3ccccc3)cc2)cs1 [MIRABEGRON]
Reply | 5
